- Tested on: HEp-2
- Measurement description: Antiproliferative activity against human Hep2 cells after 48 hrs by sulforhodamine B assay
- Format: functional, cell-based
- Condition info: HEp-2, 48 h
Listing of entries alongside the reported IC50.
Just the number please, in µM, no unit attached.

-- ask Annotate the compound CC1=C2[C@H]3OC(=O)C4(C[C@H](c5cc(Cl)ccc5Cl)N(c5ccccc5)O4)[C@@H]3CC[C@@]2(C)C=CC1=O (stereo partly drawn) with its measured IC50.
-- reply 100

-- ask Annotate the compound CC1=C2[C@H]3OC(=O)C4(CC(c5cc(Cl)ccc5Cl)=NO4)[C@@H]3CC[C@@]2(C)C=CC1=O (stereo partly drawn) with its measured IC50.
-- reply 100

-- ask Annotate the compound CC1=C2[C@H]3OC(=O)C4(C[C@H](c5ccc([N+](=O)[O-])cc5)N(c5ccccc5)O4)[C@@H]3CC[C@@]2(C)C=CC1=O (stereo partly drawn) with its measured IC50.
-- reply 14

###

- Test system: HCT-116
- Measurement description: Antiproliferative activity against human HCT116 cells after 48 hrs by sulforhodamine B assay
- Format: functional, cell-based
- Condition info: HCT-116, 48 h
Listing of entries alongside the reported log10(IC50).
The figures below represent log10 of IC50, where IC50 is stated in µM.

# example entries with known answers
COc1ccc([C@H]2CC3(ON2c2ccccc2)C(=O)O[C@@H]2C4=C(C)C(=O)C=C[C@]4(C)CC[C@H]23)cc1Br (stereo partly drawn); 2.00
CC1=C2[C@H]3OC(=O)C4(C[C@@H](c5cccc([N+](=O)[O-])c5)N(c5ccccc5)O4)[C@@H]3CC[C@@]2(C)C=CC1=O (stereo partly drawn); 1.68
CO[C@@]12[C@H](COC(N)=O)C3=C(C(=O)C(C)=C(N)C3=O)N1C[C@@H]1N[C@@H]12; -0.30
CC1=C2[C@H]3OC(=O)C4(CC(c5c6ccccc6cc6ccccc56)=NO4)[C@@H]3CC[C@@]2(C)C=CC1=O (stereo partly drawn); 1.65
CC1=C2[C@H]3OC(=O)C4(C[C@@H](c5ccc(F)c(Br)c5)N(c5ccccc5)O4)[C@@H]3CC[C@@]2(C)C=CC1=O (stereo partly drawn); 0.63

-- ask # lookup: HCT-116 log10(IC50), key = CC1=C2[C@H]3OC(=O)C4(C[C@H](c5cccc6ccccc56)N(c5ccccc5)O4)[C@@H]3CC[C@@]2(C)C=CC1=O (stereo partly drawn)
-- reply 2.00

-- ask # lookup: HCT-116 log10(IC50), key = CC1=C2[C@H]3OC(=O)C4(C[C@@H](c5cc(Cl)ccc5Cl)N(c5ccccc5)O4)[C@@H]3CC[C@@]2(C)C=CC1=O (stereo partly drawn)
-- reply 2.00

-- ask # lookup: HCT-116 log10(IC50), key = CC1=C2[C@H]3OC(=O)C4(C[C@H](c5cc(Cl)ccc5Cl)N(c5ccccc5)O4)[C@@H]3CC[C@@]2(C)C=CC1=O (stereo partly drawn)
-- reply 1.51

-- ask # lookup: HCT-116 log10(IC50), key = CC1=C2[C@H]3OC(=O)C4(CC(c5ccc6ccccc6c5)=NO4)[C@@H]3CC[C@@]2(C)C=CC1=O (stereo partly drawn)
-- reply 2.00

-- ask # lookup: HCT-116 log10(IC50), key = CC1=C2[C@H]3OC(=O)C4(CC(c5ccccc5)=NO4)[C@@H]3CC[C@@]2(C)C=CC1=O (stereo partly drawn)
-- reply 2.00

-- ask # lookup: HCT-116 log10(IC50), key = CC1=C2[C@H]3OC(=O)C4(CC(c5cc(Cl)ccc5Cl)=NO4)[C@@H]3CC[C@@]2(C)C=CC1=O (stereo partly drawn)
-- reply 1.79

-- ask # lookup: HCT-116 log10(IC50), key = CC1=C2[C@H]3OC(=O)C4(CC(c5ccccc5Cl)=NO4)[C@@H]3CC[C@@]2(C)C=CC1=O (stereo partly drawn)
-- reply 2.00

-- ask # lookup: HCT-116 log10(IC50), key = CC1=C2[C@H]3OC(=O)C4(CC(c5ccc(F)cc5)=NO4)[C@@H]3CC[C@@]2(C)C=CC1=O (stereo partly drawn)
-- reply 2.00
